Provenance of the data: patent US20070117743A1

- Test system: SK-MEL-28
- Method Description: SRB colorimetric assay of cell growth and viability, SK-MEL-28
- Format: cell-based, human
- Conditions Used: 48 hours exposure
Recorded Endpoint: TGI MEL-28 (Molar)
API: value field is a number in Molar; no unit string.

Recorded TGI MEL-28, per entry:
>  <Compound>
C/C=C1\NC(=O)[C@H](Cc2ccccc2)NC(=O)[C@@H](C(C)C)NC(=O)[C@@H]([C@@H](C)CC)NC(=O)[C@H](NC(=O)[C@H](NC(=O)[C@H](CCCN)NC(=O)[C@H]2CCCN2C(=O)[C@H](NC(=O)[C@@H](NC(=O)[C@@H](NC(=O)[C@H](NC(=O)CCCCCCC)C(C)C)[C@@H](C)O)C(C)C)C(C)C)[C@@H](C)CC)[C@@H](C)OC(=O)[C@H](C(C)C)NC1=O [Compound 18, [Oct^14]-KF]

>  <Assay Target>
SK-MEL-28

>  <Measurement Units>
Molar

>  <TGI MEL-28>
1.14E−06

$$$$
>  <Compound>
C/C=C1\NC(=O)[C@H](Cc2ccccc2)NC(=O)[C@@H](C(C)C)NC(=O)[C@@H]([C@@H](C)CC)NC(=O)[C@H](NC(=O)[C@H](NC(=O)[C@H](CCCN)NC(=O)[C@H]2CCCN2C(=O)[C@H](NC(=O)[C@@H](NC(=O)[C@H](NC(=O)[C@H](NC(=O)CCCC(C)C)C(C)C)[C@H](C)O)C(C)C)C(C)C)[C@@H](C)CC)[C@@H](C)OC(=O)[C@H](C(C)C)NC1=O [Compound 7, [D-Thr^12]-KF]

>  <Assay Target>
SK-MEL-28

>  <Measurement Units>
Molar

>  <TGI MEL-28>
6.77E−06

$$$$

# next compound below
Input line: For the compound shown here, C/C=C1\NC(=O)[C@H](Cc2ccccc2)NC(=O)[C@@H](C(C)C)NC(=O)[C@@H]([C@@H](C)CC)NC(=O)[C@H](NC(=O)[C@H](NC(=O)[C@H](CCCN)NC(=O)[C@H]2CCCN2C(=O)[C@H](NC(=O)[C@@H](NC(=O)[C@@H](NC(=O)[C@H](NC(=O)c2ccccc2)C(C)C)[C@@H](C)O)C(C)C)C(C)C)[C@@H](C)CC)[C@@H](C)OC(=O)[C@H](C(C)C)NC1=O [Compound 20, [Bza^14]-KF] , give the reported TGI MEL-28.
Output line: 2.26E−06

###

- System: HeLa
- Method Description: SRB colorimetric assay of cell growth and viability, HeLa
- Format: cell-based, human
- Conditions Used: HELA; 48 hours exposure; read-out: LC50 HELA
Where a SMILES comes first, the peptide text is derived from it. Bridges are numbered along the chain shown (N, C = ends). [ ]: non-standard residue; d: D form. The star is where a group is joined. d(aIle) = CC[C@H](C)[C@@H](N)C(=O)O; d(aThr) = C[C@@H](O)[C@@H](N)C(=O)O; Hexanoyl(5-Me) = CC(C)CCCC(=O)*; Orn = NCCC[C@H](N)C(=O)O; Dhb = C/C=C(\N)C(=O)O
Readings of CC50 for the listed compounds
Supply the numeric figure in µM, leaving out any unit text.

>  <Compound>
C/C=C1\NC(=O)[C@H](Cc2ccccc2)NC(=O)[C@@H](C(C)C)NC(=O)[C@@H]([C@@H](C)CC)NC(=O)[C@H](NC(=O)[C@H](NC(=O)[C@H](CCCN)NC(=O)[C@H]2CCCN2C(=O)[C@H](NC(=O)[C@@H](NC(=O)[C@H](CCCN)NC(=O)[C@H](NC(=O)CCCC(C)C)C(C)C)C(C)C)C(C)C)[C@@H](C)CC)[C@@H](C)OC(=O)[C@H](C(C)C)NC1=O [Compound 116, [Orn^12]-KF] ({Hexanoyl(5-Me)}-[dV][Orn]V[dV][dP][Orn][d(aIle)][d(aThr)][d(aIle)][dV]F[Dhb]V; ester 8-C)

>  <CC50, µM>
6.71

$$$$

We now examine a further compound.
Input line: Identify the measured CC50 of C/C=C1\NC(=O)[C@H](Cc2ccccc2)NC(=O)[C@@H](C(C)C)NC(=O)[C@@H]([C@@H](C)CC)NC(=O)[C@H](NC(=O)[C@H](NC(=O)[C@H](CCCN)NC(=O)[C@H]2CCCN2C(=O)[C@H](NC(=O)[C@@H](NC(=O)[C@H](C)NC(=O)[C@H](NC(=O)CCCC(C)C)C(C)C)C(C)C)C(C)C)[C@@H](C)CC)[C@@H](C)OC(=O)[C@H](C(C)C)NC1=O [Compound 112, [Ala^12]-KF] ({Hexanoyl(5-Me)}-[dV]AV[dV][dP][Orn][d(aIle)][d(aThr)][d(aIle)][dV]F[Dhb]V; ester 8-C) for HeLa.
Output line: 6.91

###

- System: HT-29
- Method Description: SRB colorimetric assay of cell growth and viability, HT-29
- Assay type: cell-based, human
- Conditions Used: 48 hours exposure
Where a SMILES comes first, the peptide text is derived from it. Bridges are numbered along the chain shown (N, C = ends). [ ]: non-standard residue; d: D form. The star is where a group is joined. d(aIle) = CC[C@H](C)[C@@H](N)C(=O)O; d(aThr) = C[C@@H](O)[C@@H](N)C(=O)O; Hexanoyl(5-Me) = CC(C)CCCC(=O)*; Orn = NCCC[C@H](N)C(=O)O; Dhb = C/C=C(\N)C(=O)O
Recorded Endpoint: TGI HT-29 (Molar)
Entry rule: numbers only, all in Molar.

>  <Molecule>
C/C=C1\NC(=O)[C@H](Cc2ccccc2)NC(=O)[C@@H](C(C)C)NC(=O)[C@@H]([C@@H](C)CC)NC(=O)[C@H](NC(=O)[C@H](NC(=O)[C@H](CCCN)NC(=O)[C@H]2CCCN2C(=O)[C@H](NC(=O)[C@@H](NC(=O)CNC(=O)CCCC(C)C)C(C)C)C(C)C)[C@@H](C)CC)[C@@H](C)OC(=O)[C@H](C(C)C)NC1=O [Compound 53, [Gly^12, noD-Val^13]-KF] ({Hexanoyl(5-Me)}-GV[dV][dP][Orn][d(aIle)][d(aThr)][d(aIle)][dV]F[Dhb]V; ester 7-C)

>  <Measurement Units>
Molar

>  <TGI HT-29>
7.49E−06

$$$$

API: the following record is the query input.
Input line: For the record C/C=C1\NC(=O)[C@H](Cc2ccccc2)NC(=O)[C@@H](C(C)C)NC(=O)[C@@H]([C@@H](C)CC)NC(=O)[C@H](NC(=O)[C@H](NC(=O)[C@H](CCCN)NC(=O)[C@H]2CCCN2C(=O)[C@H](NC(=O)[C@@H](NC(=O)[C@@H](NC(=O)[C@H](NC(=O)CCCCCCC)C(C)C)[C@@H](C)O)C(C)C)C(C)C)[C@@H](C)CC)[C@@H](C)OC(=O)[C@H](C(C)C)NC1=O [Compound 18, [Oct^14]-KF] , what value of TGI HT-29 is listed for HT-29?
Output line: 3.22E−07

###

- System: PANC-1
- Method Description: SRB colorimetric assay of cell growth and viability, PANC-1
- Assay type: cell-based, human
- Conditions Used: 48 hours exposure
Where a SMILES comes first, the peptide text is derived from it. Bridges are numbered along the chain shown (N, C = ends). [ ]: non-standard residue; d: D form. The star is where a group is joined. d(aIle) = CC[C@H](C)[C@@H](N)C(=O)O; d(aThr) = C[C@@H](O)[C@@H](N)C(=O)O; Hexanoyl(5-Me) = CC(C)CCCC(=O)*; Orn = NCCC[C@H](N)C(=O)O; Dhb = C/C=C(\N)C(=O)O
Recorded Endpoint: GI50 (µM)
Number only, in µM; omit the unit.

>  <Compound>
C/C=C1\NC(=O)[C@H](Cc2ccccc2)NC(=O)[C@@H](C(C)C)NC(=O)[C@@H]([C@@H](C)CC)NC(=O)[C@H](NC(=O)[C@H](NC(=O)[C@H](CCCN)NC(=O)[C@H]2CCCN2C(=O)[C@H](NC(=O)[C@H](C)NC(=O)[C@@H](NC(=O)[C@H](NC(=O)CCCC(C)C)C(C)C)[C@@H](C)O)C(C)C)[C@@H](C)CC)[C@@H](C)OC(=O)[C@H](C(C)C)NC1=O [Compound 44, [Ala^11]-KF] ({Hexanoyl(5-Me)}-[dV]TA[dV][dP][Orn][d(aIle)][d(aThr)][d(aIle)][dV]F[Dhb]V; ester 8-C)

>  <Result Value>
6.9

$$$$

Now for a further compound.
Input line: Requested field: GI50. Item: C/C=C1\NC(=O)[C@H](Cc2ccccc2)NC(=O)[C@@H](C(C)C)NC(=O)[C@@H]([C@@H](C)CC)NC(=O)[C@H](NC(=O)[C@H](NC(=O)[C@H](CCCN)NC(=O)[C@H]2CCCN2C(=O)[C@H](NC(=O)[C@@H]2CCCN2C(=O)[C@@H](NC(=O)[C@H](NC(=O)CCCC(C)C)C(C)C)[C@@H](C)O)C(C)C)[C@@H](C)CC)[C@@H](C)OC(=O)[C@H](C(C)C)NC1=O [Compound 47, [Pro^11]-KF] ({Hexanoyl(5-Me)}-[dV]TP[dV][dP][Orn][d(aIle)][d(aThr)][d(aIle)][dV]F[Dhb]V; ester 8-C)
Output line: 5.63
